Test system: β-Glucosidase (almond)
Experiment: Beta-glucosidase (almond) inhibitor assay, pH 4.8
Type: biochemical
Details: 1000 μM
Protocol: Yeast alpha-glucosidase and almond beta-glucosidase activities were measured by a modification of the method of Evans, et al., Phytochemistry 22, 768-770 (1983). […] The release of p-nitrophenol from the substrate p-nitrophenylglycoside was measured spectrophotometrically in the presence and absence of test compound. […]
Respond with T for Percent inhibition of β-glucosidase (almond) values of 30% and above, F for values below.

# count of solved cases: 6
>>> df
                                   compound              measuredon  classname
0  CCCCN1C[C@H](C#N)[C@@H](O)[C@H](O)[C@H]1CO [Example 53]  β-Glucosidase (almond)          F
1  CCCCCCN1C[C@H](Cl)[C@@H](O)[C@H](O)[C@H]1CO [Example 28]  β-Glucosidase (almond)          T
2  CCCCN1[C@H](CO)[C@@H](O)[C@H](O)[C@H]1CN=[N+]=[N-] [Example 47]  β-Glucosidase (almond)          T
3  CCCCN1[C@H](CO)[C@@H](O)[C@H](O)[C@H]1CC#N [Example 54]  β-Glucosidase (almond)          F
4  CCCCN1C[C@H](Sc2nnnn2C)[C@@H](O)[C@H](O)[C@H]1CO [56(a)]  β-Glucosidase (almond)          F
5  CCCCCCCCCN1C[C@H](Cl)[C@@H](O)[C@H](O)[C@H]1CO [Example 29]  β-Glucosidase (almond)          T

Qu. // inclusive: Percent inhibition of β-glucosidase (almond) at least 30%? input: CCCCN1[C@H](CO)[C@@H](O)[C@H](O)[C@H]1CNC(C)=O [Example 51]
Ans. F

Qu. Same again, this time with CCCCN(CCCC)C[C@@H]1[C@@H](O)[C@H](O)[C@@H](CO)N1CCCC [Example 49]
Ans. F

Qu. Same again, this time with OC[C@@H]1[C@@H](O)[C@H](O)[C@@H](Cl)CN1CCCc1ccccc1 [Example 30]
Ans. T

Qu. Same again, this time with CCCCNC(=O)O[C@H]1CN(CCCC)[C@H](CO)[C@@H](O)[C@@H]1O [Example 36]
Ans. F

Qu. Same again, this time with CCCCN1[C@H](CN)[C@@H](O)[C@H](O)[C@H]1CO [Example 48]
Ans. F
